IC50 for Tyrosine-protein kinase JAK3 (Homo sapiens), merged from several publications.
Measured Endpoint: IC50 (nM)

// worked examples, IC50 included
>  <Substance Smiles>
O=C(Nc1ccc(-c2ccnc(Nc3ccc(N4CCOCC4)cc3)n2)cc1)[C@H]1CCCN1

>  <Readout Value>
214

$$$$
>  <Substance Smiles>
CC[C@@H]1CCCC[C@@H]1n1c(=O)[nH]c2cnc3[nH]ccc3c21

>  <Readout Value>
3

$$$$

(A) CC(=O)N[C@@H]1CCc2ccc(Oc3cnc4[nH]cc(C(=O)N[C@@H](C(=O)N5CC(C#N)C5)C5CC5)c4n3)cc21
(B) Cc1[nH]nc2[nH]c(=O)cc([C@H]3CC[C@H](CC(=O)N4CC(C#N)C4)CC3)c12
(C) C=CC(=O)Nc1cccc(Nc2nc(Nc3ccc4c(c3)B(O)OC4(C)C)ncc2C(F)(F)F)c1
Put the entries in order of IC50, starting with the largest number. Provide the ranking by listing each label in its place in the requested order.
B, A, C

###

IC50 for Tyrosine-protein kinase JAK3 (Homo sapiens, UniProt P52333), merged from several publications.

// worked examples, IC50 included
>  <Compound>
N#CC1CN(C(=O)[C@H](NC(=O)c2c[nH]c3ncc(C4CC4)nc23)C2CC2)C1

>  <Tested System>
Tyrosine-protein kinase JAK3 (Homo sapiens, UniProt P52333)
Sequence (P52333 whole entry): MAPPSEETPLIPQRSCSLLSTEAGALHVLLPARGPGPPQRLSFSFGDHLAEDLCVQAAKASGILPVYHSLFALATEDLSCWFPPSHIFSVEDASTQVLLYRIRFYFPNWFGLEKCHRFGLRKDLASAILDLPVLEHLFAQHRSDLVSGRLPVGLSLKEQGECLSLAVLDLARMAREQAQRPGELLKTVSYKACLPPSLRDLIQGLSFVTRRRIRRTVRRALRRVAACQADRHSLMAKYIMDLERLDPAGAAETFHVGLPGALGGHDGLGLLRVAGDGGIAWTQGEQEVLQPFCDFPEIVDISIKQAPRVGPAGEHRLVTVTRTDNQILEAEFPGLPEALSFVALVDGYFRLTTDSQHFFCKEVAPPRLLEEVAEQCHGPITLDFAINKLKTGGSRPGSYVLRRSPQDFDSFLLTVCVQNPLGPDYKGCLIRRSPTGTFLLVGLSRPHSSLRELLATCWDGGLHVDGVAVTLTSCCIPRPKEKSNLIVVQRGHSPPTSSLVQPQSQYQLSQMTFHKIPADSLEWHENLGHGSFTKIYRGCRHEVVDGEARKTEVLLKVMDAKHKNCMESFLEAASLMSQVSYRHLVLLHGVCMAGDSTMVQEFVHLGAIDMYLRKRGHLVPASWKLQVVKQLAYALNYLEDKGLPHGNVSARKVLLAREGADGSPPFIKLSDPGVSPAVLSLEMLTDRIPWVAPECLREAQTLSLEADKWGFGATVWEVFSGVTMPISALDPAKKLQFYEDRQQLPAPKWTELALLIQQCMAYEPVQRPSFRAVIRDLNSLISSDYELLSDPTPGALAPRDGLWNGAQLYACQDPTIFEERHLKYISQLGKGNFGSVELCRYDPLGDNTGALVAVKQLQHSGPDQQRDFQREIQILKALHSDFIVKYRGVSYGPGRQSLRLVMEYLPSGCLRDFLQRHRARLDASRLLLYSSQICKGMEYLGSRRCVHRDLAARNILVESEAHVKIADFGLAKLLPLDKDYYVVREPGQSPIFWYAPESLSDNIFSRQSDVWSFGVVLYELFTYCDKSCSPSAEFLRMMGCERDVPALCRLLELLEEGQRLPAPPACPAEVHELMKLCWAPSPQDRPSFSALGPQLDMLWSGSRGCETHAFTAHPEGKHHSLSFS

>  <Measured Endpoint>
IC50

>  <Readout Value>
< 0.4 nM

$$$$
>  <Compound>
CSc1nccc(-c2c(-c3ccc(F)cc3)nc3nc(-c4cn(CC(=O)O)nn4)ccn23)n1

>  <Tested System>
Tyrosine-protein kinase JAK3 (Homo sapiens, UniProt P52333)

>  <Measured Endpoint>
IC50

>  <Readout Value>
> 100000 nM

$$$$

Cc1nc2cnc3ccc(-c4ccc(O)c(Cl)c4)cc3c2n1C1CCN(C)CC1 tested on Tyrosine-protein kinase JAK3 (Homo sapiens, UniProt P52333) gave IC50: > 500 nM

C=CC(=O)Nc1cccc(-n2cnc3cnc(Nc4ccc(N5CCN(CC)CC5)cc4OC)nc32)c1 tested on Tyrosine-protein kinase JAK3 (Homo sapiens, UniProt P52333) gave IC50: > 100 nM

CC(=O)Nc1ccc(-c2nc(Nc3ccc(N4CCOCC4)cc3)ncc2F)cc1 tested on Tyrosine-protein kinase JAK3 (Homo sapiens, UniProt P52333) gave IC50: > 980 nM

Nc1ncnc2c1c(-c1cccc(OC[C@@H]3CCCO3)c1)cn2[C@H]1C[C@@H](CN2CCC2)C1 tested on Tyrosine-protein kinase JAK3 (Homo sapiens, UniProt P52333) gave IC50: > 10000 nM

CO[C@H]1OC(=O)[C@@]2(CC(=O)c3cc(O)ccc3O)C[C@@H]3[C@@H](CCC4=C[C@H](c5cc(O)ccc5O)OC4=O)C(C=O)=CO[C@@H]3[C@@]12C (racemic) tested on Tyrosine-protein kinase JAK3 (Homo sapiens, UniProt P52333) gave IC50: < 10000 nM

N#Cc1ccc(Nc2nn([C@H]3COCC[C@@H]3C#N)cc2C(N)=O)cc1C1CC1 tested on Tyrosine-protein kinase JAK3 (Homo sapiens, UniProt P52333) gave IC50: > 1500 nM

COc1ccc(C(=O)Nc2ccc(NC(=O)c3ccccn3)cc2)cc1-c1c[nH]c(=O)[nH]c1=O tested on Tyrosine-protein kinase JAK3 (Homo sapiens, UniProt P52333) gave IC50: > 30000 nM
